FYI, the data here is from PubChem BioAssay (NCI).

Consider the following compounds; for each one, report its GI50.
tested on: HCC-2998 colon; assay: NCI tumour cell line growth inhibition, 48 h

CNC(=O)[C@H](Cc1c[nH]c2ccccc12)NC(=O)[C@@H](CC(=O)NO)CC(C)C yielded GI50 of > 25 µM

COc1ccc(C2=Nn3c(nnc3-c3ccc(F)c(Cl)c3)SC2)cc1 yielded GI50 of > 100 µM

CN(C)Cc1ccc(NC(=O)c2cncc(C#Cc3cnc(N)c4ncccc34)c2)cc1C(F)(F)F yielded GI50 of 1.62 µM

C[C@H]1C[C@@H](n2c(Nc3ccc(OC(F)(F)F)cc3)nc3cc(CCC(=O)O)ccc32)CC(C)(C)C1 yielded GI50 of 6.68 µM

O=C1/C(=C/c2ccc(F)cc2)COc2ccc(O)c(O)c21 yielded GI50 of 1.8 µM

O=C(O)CCCN1C(=O)/C(=C/C(Cl)=C/c2ccccc2)SC1=S yielded GI50 of 1.83 µM

O=C(CCN1CCCC1)Nc1ccc2c(Nc3ccc(F)cc3)c3ccccc3nc2c1 yielded GI50 of 1.16 µM

COc1cc(/C=C/C(=O)c2c(C)n([O-])c3ccccc3[n+]2=O)cc(OC)c1OC yielded GI50 of 8.77 µM

COc1ccc(-n2cc(-c3cc(OC)c(OC)c(OC)c3)nc2SCc2cccc(C#N)c2)cc1OC yielded GI50 of > 100 µM

COc1ccc(C2=C(c3ccc(OC)cc3)C(=O)OC2)cc1 yielded GI50 of 0.264 µM

* * *

Consider the following compounds; for each one, report its TGI.
tested on: HCT-15 colon; experiment: NCI tumour cell line growth inhibition, 48 h

Form field TGI for item O=NNc1ccc(-c2ccccc2)cn1 on HCT-15 colon: 56.1 µM

Form field TGI for item COc1ccc(-c2nc(NC(=O)CS(=O)(=O)c3ccc(F)cc3)sc2C)cc1 on HCT-15 colon: > 100 µM

Form field TGI for item ClCCCN1CCN(CCCl)CC1 on HCT-15 colon: 790 µM

Form field TGI for item CCOC(CBr)OC1C(=O)OCC1(C)C (stereo unspecified) on HCT-15 colon: > 100 µM

Form field TGI for item CC1OC(NCCNCCNC2OC(C)C(O)C(O)C2O)C(O)C(O)C1O (stereo unspecified) on HCT-15 colon: > 100 µM

Form field TGI for item COc1ccccc1/C=C1\C(=O)N(C(=O)Cc2ccccc2)N=C1C on HCT-15 colon: > 100 µM

* * *

test system: HT29 colon; assay: NCI tumour cell line growth inhibition, 48 h
recorded metric: TGI (µM)
Just the number please, in µM, no unit attached.

O=[N+]([O-])c1ccc(Sc2cccc[n+]2[O-])c2nonc12 yielded TGI of 29.4

COc1cc(C[C@@]2(C)[C@@H]3CCC[C@H](CO)[C@@]3(C)CC[C@@H]2C)c(Cl)c(OC)c1 yielded TGI of 26

CCO/N=C\c1ccc2oc(-c3ccccc3)cc(=O)c2c1 yielded TGI of 5.34

CN1C/C(=C\c2cccs2)C2=NN(c3ccccc3)C(c3cccs3)C2C1 (stereo not given) yielded TGI of 22.4

* * *

Consider the following compounds; for each one, report its TGI.
tested on: NCI-H23 lung; experiment: NCI tumour cell line growth inhibition, 48 h
Just the number please, in µM, no unit attached.

COc1ccc2nc3cc(Cl)ccc3c(Sc3ccc(N)cc3)c2c1 yielded TGI of 27.9

COc1cc(C[C@@]2(C)[C@@H]3CCC[C@H](CO)[C@@]3(C)CC[C@@H]2C)c(Cl)c(OC)c1 yielded TGI of 37.2

O=C(O)CCCN1C(=O)/C(=C/C(Cl)=C/c2ccccc2)SC1=S yielded TGI of 6.27

Cc1cccc(CNc2c3ccccc3nc3ccccc23)c1 yielded TGI of 4.22

* * *

system: NCI-H522 lung; experiment: NCI tumour cell line growth inhibition, 48 h; in the data active = GI50 below about 0.43 µM; inactive = the rest
// one of Yes for active, No for inactive, no free text

query: Could you kindly confirm the outcome this assay logged for COc1cc(C[C@H]2COC(=O)[C@]2(O)Cc2ccc(OCc3ccccc3)c(OC)c2)ccc1OCc1ccccc1 ?
result: No

query: Could you kindly confirm the outcome this assay logged for CCCC(=O)Oc1ccc(/C(=C(\C)c2ccc(Cl)cc2)c2ccc(OCCN(CC)CC)cc2)cc1 ?
result: No

query: Could you kindly confirm the outcome this assay logged for CN(C)Cc1ccc(NC(=O)c2cncc(C#Cc3cnc(N)c4ncccc34)c2)cc1C(F)(F)F ?
result: No

query: Could you kindly confirm the outcome this assay logged for CNC(=O)[C@H](Cc1c[nH]c2ccccc12)NC(=O)[C@@H](CC(=O)NO)CC(C)C ?
result: No

query: Could you kindly confirm the outcome this assay logged for CN1CCN(C2=C(Cl)C(=O)c3ccccc3C2=O)CC1 ?
result: Yes

* * *

test system: CAKI-1 renal; assay: NCI tumour cell line growth inhibition, 48 h
recorded metric: TGI

O=C1OC(C(O)CO)C(C(O)CO)OC1=O (centres undefined) yielded TGI of > 10 µM

CCOP(=O)(OCC)C(c1ccc(F)cc1)N(C(=O)NC(F)(F)F)c1ccc(F)cc1 (centres undefined) yielded TGI of > 100 µM

O=[N+]([O-])c1ccc(C[P+]2(c3ccccc3)CCCCC2)cc1 (tested in a mixture with another compound) yielded TGI of > 100 µM

Nc1cc(C2CCCc3c2[nH]c2ccccc32)ccc1O (centres undefined) yielded TGI of 84.5 µM

Cc1cn(S(=O)(=O)c2ccccc2)c2c(OCc3ccccc3)cc([N+](=O)[O-])cc12 yielded TGI of > 100 µM

CN1CCN(C2=C(Cl)C(=O)c3ccccc3C2=O)CC1 yielded TGI of 3.39 µM

Cn1cc(-c2ccc3c4ccccc4n(C)c3c2)c2ccccc21 yielded TGI of > 100 µM

Cc1cc2ncn(CC(=O)O)c2cc1C yielded TGI of > 100 µM

O=C(O)CCCN1C(=O)/C(=C/C(Cl)=C/c2ccccc2)SC1=S yielded TGI of 3.76 µM

* * *

Consider the following compounds; for each one, report its TGI.
system: RPMI-8226 leukemia; test: NCI tumour cell line growth inhibition, 48 h
Where a SMILES comes first, the peptide text is derived from it. [ ]: non-standard residue; d: D form. Ava = NCCCCC(=O)O; Mpa = O=C(O)CCS

Form field TGI for item Nc1cc(CO)cc(Nc2c3ccccc3nc3ccccc23)c1 on RPMI-8226 leukemia: > 100 µM

Form field TGI for item CCCC(=O)Oc1ccc(/C(=C(\C)c2ccc(Cl)cc2)c2ccc(OCCN(CC)CC)cc2)cc1 on RPMI-8226 leukemia: 9.02 µM

Form field TGI for item O=C(c1ccc(Cl)cc1Cl)N1CCN(C(=O)c2ccc(Cl)cc2Cl)C1=S on RPMI-8226 leukemia: 30.7 µM

Form field TGI for item CC(=O)C1=C(C)N(c2ccccc2)C2(O)C3=C(C(=O)c4ccccc4C3=O)C(O)=CC12Cl (configuration not stated) on RPMI-8226 leukemia: 4.39 µM

Form field TGI for item COc1ccc(C2=C(c3ccc(OC)cc3)C(=O)OC2)cc1 on RPMI-8226 leukemia: 11.4 µM

Form field TGI for item CC1(Cl)C(=O)NC(=O)N([C@H]2C[C@H](O)[C@@H](CO)O2)C1N=[N+]=[N-] (some centres not stated) on RPMI-8226 leukemia: > 100 µM

Form field TGI for item CC(NC(=O)CCS)C(=O)NC(C)C(=O)NC(Cc1c[nH]c2ccccc12)C(=O)NC(Cc1c[nH]cn1)C(=O)NC(CO)C(=O)NC(Cc1c[nH]c2ccccc12)C(=O)NCCCCC(=O)NC(C)C(=O)NC(CCC(N)=O)C(=O)NC(CCCCN)C(=O)NC(C)C(=O)NC(CCCNC(=N)N)C(=O)NC(CCCCN)C(N)=O (configuration not stated) ([Mpa]AAWHSW[Ava]AQKARK-NH2; configuration not given here) on RPMI-8226 leukemia: > 100 µM

* * *

Consider the following compounds; for each one, report its GI50.
system: UO-31 renal; experiment: NCI tumour cell line growth inhibition, 48 h

CCCC(=O)Oc1ccc(/C(=C(\C)c2ccc(Cl)cc2)c2ccc(OCCN(CC)CC)cc2)cc1 yielded GI50 of 1430 nM

O=[N+]([O-])c1ccccc1/C=N\NC(=S)N/N=C/c1ccccc1[N+](=O)[O-] yielded GI50 of 5660 nM

COC(=O)CNC(=O)C(=O)c1c(O)c(O)c(C(C)C)c2cc(C)c(-c3c(C)cc4c(C(C)C)c(O)c(O)c(C(=O)C(=O)NCC(=O)OC)c4c3O)c(O)c12 yielded GI50 of 1430 nM

Cc1cccc(CNc2c3ccccc3nc3ccccc23)c1 yielded GI50 of 1190 nM

Nc1[nH]nc(Nc2ccccc2)c1-c1nc2ccccc2s1 yielded GI50 of 1330 nM

O=C(O)CCCN1C(=O)/C(=C/C(Cl)=C/c2ccccc2)SC1=S yielded GI50 of 1070 nM

C[C@H]1C[C@@H](n2c(Nc3ccc(OC(F)(F)F)cc3)nc3cc(CCC(=O)O)ccc32)CC(C)(C)C1 yielded GI50 of 9380 nM

COc1ccc(Cn2cc3c(c2-c2ccccc2)CCc2cnoc2-3)cc1 yielded GI50 of 677 nM

N.N.N.N.N#N.N#N.[Cl-].[Os+6] yielded GI50 of > 100000 nM
